Reference for the values: PubChem BioAssay (NCI)

Property: growth; scope: individual molecules
# System: NCI-H460 lung
# test.description: NCI-60 one-dose screen, 48 h (100 = growth as untreated, 0 = no growth, -100 = all killed)
# condition.context: 10 µM
This is part of a sample that, as a whole, favours compounds with a hit. Of some 83,000 tested, about 20% had one in any assay.
recorded.metric: growth (%)

molecule=CC(C)N=C([Se])NC(=O)c1ccccc1 measurement_units=% numeric_value=-25.8
molecule=CC1=C(CCC=NNC(N)=O)C2=C(C)C3(CC3)[C@@](C)(O)C(=O)C2=C1 measurement_units=% numeric_value=-24.8
molecule=CC[C@]12C=CCN3CC[C@@]4(c5ccc(OC)cc5N(C)[C@H]4[C@@](O)(C(=O)OC)[C@@H]1OC(=O)CCCC[P+](c1ccc(OC)cc1)(c1ccc(OC)cc1)c1ccc(OC)cc1)[C@@H]32 measurement_units=% numeric_value=-87
molecule=O=C(NC([Se])=NC1CCCCC1)c1ccccc1 measurement_units=% numeric_value=11.6
molecule=CC12CCC3(CCC(=O)NCCCNc4ccnc5cc(Cl)ccc45)[C@@](C)(OO[C@]3(C)O1)O2 measurement_units=% numeric_value=7.06
molecule=CN(C)CCc1cn(C2CCC2)c2cccc(O)c12 measurement_units=% numeric_value=70.7
molecule=C#CCCCN(CCNc1ccnc2cc(Cl)ccc12)C(=O)CCC(=O)O[C@@H]1O[C@@H]2OC3(C)CC[C@H]4[C@H](C)CC[C@@H]([C@H]1C)[C@@]24OO3 measurement_units=% numeric_value=40.6
molecule="CC12OOC(C)(OO1)C2CCC(=O)NCCCNc1ccnc2cc(Cl)ccc12 (centres undefined)" measurement_units=% numeric_value=88.6
molecule=COc1ccc(/C=C/C(=O)c2nc3ccccc3n2Cc2ccc(Br)cc2)cc1 measurement_units=% numeric_value=57.8
molecule="CCOP(=O)(OCC)C(NC(C)=O)C(=O)SCCN (centres undefined)" measurement_units=% numeric_value=121
molecule=CCOP(=O)(CC(F)(F)C(F)(F)F)OCC measurement_units=% numeric_value=91.6
molecule=O=C(/C=C/c1ccco1)c1nc2ccccc2n1Cc1ccc(Br)cc1 measurement_units=% numeric_value=32.4
molecule=C#CC[Se]C(=O)c1ccc2n[se]nc2c1 measurement_units=% numeric_value=63.9
molecule="CC(=C\\C(=O)Oc1ccc2c3c1OC1C(O)CCC4(O)C(C2)N(CC2CCC2)CCC314)/C=C1\\CCCc2ccccc21 (centres undefined)" measurement_units=% numeric_value=12.1
molecule=C[C@H]1[C@H](OC(=O)CCC(=O)N(CCCc2cn(-c3ccc([N+](=O)[O-])cc3)nn2)CCNc2ccnc3cc(Cl)ccc23)O[C@@H]2OC3(C)CC[C@H]4[C@H](C)CC[C@@H]1[C@@]24OO3 measurement_units=% numeric_value=53.5
molecule=O=C(/C=C/c1ccc(Cl)cc1Cl)c1nc2ccccc2n1Cc1ccc(F)cc1 measurement_units=% numeric_value=43.8
molecule=C[C@H]1[C@@H](Oc2ccc(-c3cn(-c4ccnc5cc(Cl)ccc45)nn3)cc2)O[C@@H]2OC3(C)CC[C@H]4[C@H](C)CC[C@@H]1[C@@]24OO3 measurement_units=% numeric_value=25.3
molecule=COc1ccc2cc([C@H](C)C(=O)[Se]CCC#N)ccc2c1 measurement_units=% numeric_value=-27.2
molecule=COc1cc(OC)c(S(=O)(=O)N(CCCl)CCCl)cc1C(=O)/C=C/c1cc(OC)c(OC)c(OC)c1 measurement_units=% numeric_value=1.08
molecule=CC(C)N=C([Se])NC(=O)c1cccs1 measurement_units=% numeric_value=0.572
molecule=COC(=O)C[C@](O)(CCC(C)C)C(=O)O[C@@H]1C(OC)=C[C@]23CCCN2CCc2cc4c(cc2[C@H]13)OCO4 measurement_units=% numeric_value=-20.6
molecule=COC(=O)C[C@](O)(CCCC(C)C)C(=O)O[C@H]1C(OC)=C[C@@]23CCCN2CCc2cc4c(cc2[C@@H]13)OCO4 measurement_units=% numeric_value=-28.6
molecule=O=C(/C=C/c1ccc(Cl)cc1)c1nc2ccccc2n1Cc1ccc(Br)cc1 measurement_units=% numeric_value=58.1
molecule=COc1cc2cc(C(=O)N3C[C@@H](CCl)c4c3cc(OC(=O)N3CCN(C)[C@@H]5CSSC[C@H]53)c3ccccc43)[nH]c2c(OC)c1OC measurement_units=% numeric_value=-68.9
molecule=CC1=C(COCCOC(=O)c2ccc(S(=O)(=O)F)cc2)C2=C(C)C3(CC3)[C@@](C)(O)C(=O)C2=C1 measurement_units=% numeric_value=2.07
molecule=CC[C@]12C=CCN3CC[C@@]4(c5ccc(OC)cc5N(C)[C@H]4[C@@](O)(C(=O)OC)[C@@H]1OC(=O)CCCC[P+](C1CCCCC1)(C1CCCCC1)C1CCCCC1)[C@@H]32 measurement_units=% numeric_value=5.27
molecule=CC(=O)Oc1ccccc1C(=O)NC([Se])=NC1CCCCC1 measurement_units=% numeric_value=6.6
molecule=O=C(/C=C/c1ccc(F)cc1)c1nc2ccccc2n1Cc1ccc(Br)cc1 measurement_units=% numeric_value=-59.4
molecule=COP(=O)(CC(F)(F)C(F)(F)F)OC measurement_units=% numeric_value=95.9
molecule="Cc1c2oc3c(C)ccc(C(=O)N[C@@H]4C(=O)N[C@H](C(C)C)C(=O)N5CCC[C@H]5C(=O)N(C)CC(=O)N(C)[C@@H](C(C)C)C(=O)OC4C)c3nc-2c(C(=O)N[C@@H]2C(=O)N[C@H](C(C)C)C(=O)N3CC(=O)C[C@H]3C(=O)N(C)CC(=O)N(C)[C@@H](C(C)C)C(=O)OC2C)c(N)c1=O (some centres undefined)" measurement_units=% numeric_value=5.56
molecule=C=CCN=C([Se])NC(=O)c1ccc2c(c1)OCO2 measurement_units=% numeric_value=18.3
molecule=O=C(NCCCCC(c1ccc(F)cc1)c1ccc(F)cc1)Nc1ccc([N+](=O)[O-])c(C(F)(F)F)c1 measurement_units=% numeric_value=7.56
molecule=N#C[Se]CC(=O)Nc1cccc(C(F)(F)F)c1 measurement_units=% numeric_value=-9.31
molecule=CC1=C2C(=C[C@@](C)(COP(=O)(Oc3ccccc3)Oc3ccccc3)[C@@H]2O)C(=O)[C@@](C)(O)C12CC2 measurement_units=% numeric_value=-35.4
